Items are presented alongside their recorded half-life at 1 μg/mL.
Assay: In-vitro half-life in mouse liver microsomes
Type: in vitro ADME
Settings: Mouse liver microsomes 0.5 mg/mL; 1 μg/mL drug; NRS; read-out: Metabolic Half-life

Solved entries (count: 3):
COc1cc2c(NC3CCN(C(C)C)CC3)nc(-n3cccn3)nc2cc1OCCCN1CCCC1 : > 1 h
COCCNc1nc(N2CCC(F)(F)CC2)nc2cc(OCCCN3CCCC3)c(OC)cc12 : > 1 h
COc1cc2c(NC3CCS(=O)(=O)CC3)nc(N3CCOCC3)nc2cc1OCCCN1CCCC1 : > 1 h

Return half-life at 1 μg/mL (reported value) for this compound: COc1cc2c(Nc3ccncc3)nc(N3CCC(F)(F)CC3)nc2cc1OCCCN1CCCC1
0.727 h
